Target: mouse VISTA (mVISTA) (Mus musculus, UniProt Q9D659)
Construct: expressed in transfected cells; host or cells: Human embryonic kidney 293T cells
Sequence (Q9D659 33-308): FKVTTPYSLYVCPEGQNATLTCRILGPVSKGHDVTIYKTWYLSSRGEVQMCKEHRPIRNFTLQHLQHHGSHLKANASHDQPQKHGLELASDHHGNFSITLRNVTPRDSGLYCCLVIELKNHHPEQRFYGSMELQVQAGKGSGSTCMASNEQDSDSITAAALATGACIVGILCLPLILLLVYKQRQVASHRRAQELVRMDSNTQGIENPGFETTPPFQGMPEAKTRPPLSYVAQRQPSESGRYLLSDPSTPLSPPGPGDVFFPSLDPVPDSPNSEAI
Assay: Cell-Based Binding High-Content Assay For mVISTA (HC CBA mVISTA)
Conditions: 293T cells expressing mouse VISTA; competition with biotinylated peptide (2 nM); read-out: HC CBA mVISTA IC50
Positions of bridges follow the written chain, without caps; N, C: chain ends. Non-standard residues stand in square brackets, D forms with d. Residues, ends and D or L forms follow the SMILES beside them. N(3-phenylpropyl)Gly = O=C(O)CNCCCc1ccccc1; Ahp(2) = CCCCC[C@H](N)C(=O)O; NMeNle = CCCC[C@H](NC)C(=O)O; Tle = CC(C)(C)[C@H](N)C(=O)O; NHexGly = CCCCCCNCC(=O)O; Nle = CCCC[C@H](N)C(=O)O
Give measured pIC50 for each item. Keep answers brief.
The meaning of pIC50 here: minus log10 of the concentration in molar units.

Inquiry: Give the measured pIC50 for CCCCCCN1CC(=O)N[C@@H](Cc2ccc(O)cc2)C(=O)N[C@@H](CCCCC)C(=O)N[C@@H](CC(=O)O)C(=O)N[C@@H](CCCNC(=N)N)C(=O)N[C@@H](CC(C)C)C(=O)N[C@@H](CCCCC)C(=O)N2CCC[C@H]2C(=O)N[C@@H](C(C)C)C(=O)N[C@@H](CC(=O)O)C(=O)N[C@H](C(=O)N[C@H](CC(=O)O)C(N)=O)CSCC(=O)N[C@@H](Cc2ccccc2)C(=O)N[C@@H](Cc2ccc(O)cc2)C(=O)N[C@@H](CC(=O)O)C1=O [Example 1002] ({CH2CO}-FYD[NHexGly]Y[Ahp(2)]DRL[Ahp(2)]PVDC[dD]-NH2; thioether N-14)
Reply text: 7.83

Inquiry: Supply reported pIC50 belonging to this molecule: CCCCCCN1CC(=O)N[C@@H](Cc2ccc(O)cc2)C(=O)N[C@@H](CCCC)C(=O)NCC(=O)N[C@@H](CCCNC(=N)N)C(=O)N[C@@H](CC(C)C)C(=O)N[C@@H](CCCCC)C(=O)N2CCC[C@H]2C(=O)N[C@@H](C(C)C)C(=O)N[C@@H](CCC(=O)O)C(=O)N[C@H](C(=O)NCC(=O)O)CSCC(=O)N[C@@H](Cc2ccccc2)C(=O)N[C@@H](Cc2ccc(O)cc2)C(=O)N[C@@H](CC(=O)O)C1=O [Example 1022] ({CH2CO}-FYD[NHexGly]Y[Nle]GRL[Ahp(2)]PVECG-OH; thioether N-14)
Reply text: 7.38

Inquiry: Tell me its pIC50 given CCCCC[C@@H]1NC(=O)[C@H](CCCC)N(C)C(=O)[C@H](CCCNC(=N)N)NC(=O)[C@H](CC(N)=O)NC(=O)[C@H](CC(C)C)NC(=O)[C@H](Cc2ccc(O)cc2)NC(=O)CN(CCCc2ccccc2)C(=O)[C@H](CC(=O)O)NC(=O)[C@H](Cc2ccc(O)cc2)NC(=O)[C@H](Cc2ccccc2)NC(=O)CSC[C@@H](C(=O)NCC(N)=O)NC(=O)[C@H](CO)NC(=O)[C@H](C(C)(C)C)NC(=O)[C@@H]2CCCN2C1=O [Example 1087] ({CH2CO}-FYD[N(3-phenylpropyl)Gly]YLNR[NMeNle][Ahp(2)]P[Tle]SCG-NH2; thioether N-14) as the entry.
Reply text: 7.46

Inquiry: In one line, give reported pIC50 of the entry CCCCCCN1CC(=O)N[C@@H](Cc2ccc(O)cc2)C(=O)N[C@@H](CC(C)C)C(=O)NCC(=O)N[C@@H](CCCNC(=N)N)C(=O)N[C@@H](CC(C)C)C(=O)N[C@@H](CCCCC)C(=O)N2CCC[C@H]2C(=O)N[C@@H](C(C)C)C(=O)N[C@@H](CO)C(=O)N[C@H](C(=O)NCC(N)=O)CSCC(=O)N[C@@H](Cc2ccccc2)C(=O)N[C@@H](Cc2ccc(O)cc2)C(=O)N[C@@H](CC(=O)O)C1=O [Example 1049] ({CH2CO}-FYD[NHexGly]YLGRL[Ahp(2)]PVSCG-NH2; thioether N-14) .
Reply text: 8.02

Value source: patent US20240218022A1
